Entry source: ChEMBL document CHEMBL5614376

# PROCEDURE DETAILS: Half life in Sprague-Dawley rat at 9 mg/kg, po measured for 24 hrs by UPLC/MS/MS analysis
# Assay type: ADME, organism-based
# ASSAY CONDITIONS: in vivo
EXPERIMENTAL ENDPOINT: half-life (h)

SMILES RECORD: Cl.c1ccc2c(c1)nnn2CCCCN1CCN(c2nsc3ccccc23)CC1
UNIT ABBREV: h
OBSERVED: 1.89

###

# PROCEDURE DETAILS: Tmax in male Sprague-Dawley rat at 100 mg/kg, po qd treated for 13 weeks consecutively measured after recovery period on day 91 by UP/LC/MS/MS analysis
# Assay type: ADME, organism-based
# ASSAY CONDITIONS: in vivo, time 91 day

SMILES RECORD: Cl.c1ccc2c(c1)nnn2CCCCN1CCN(c2nsc3ccccc23)CC1
UNIT ABBREV: h
Tmax: 1.3
